binders and their reported pIC50
Target: T1, HLA-DR DRB1*0401 (human)
T1 chain 1: not shown
T1 chain 2: not shown
Assay explanation: radiolabeled-peptide inhibition, purified HLA-DR
Recorded conditions: remark: other sources report otherwise
// scale note: pIC50 = -log10(conc_M); give the bare number

The value of pIC50 measured for the binder ILLVVVLGVVFGILI [9019.0068] turned out to be 6.20

pIC50 in this record for SQFLRGQECVEECRV [9019.0062] : 5.99

Please fill in: pIC50 reported for KIPVAIKVLRENTSP [1622.03] = 5.41
